I'd appreciate it if you could supply relative activity (percentage relative to the activity for GL7-ACA) values for the items below.
# subject-of-test: GL-7-ACA acylase of P. nitroreducens ATCC 33634 (Pseudomonas nitroreducens)
# Construct: periplasmic
# Sequence (E0D5C2 24-556): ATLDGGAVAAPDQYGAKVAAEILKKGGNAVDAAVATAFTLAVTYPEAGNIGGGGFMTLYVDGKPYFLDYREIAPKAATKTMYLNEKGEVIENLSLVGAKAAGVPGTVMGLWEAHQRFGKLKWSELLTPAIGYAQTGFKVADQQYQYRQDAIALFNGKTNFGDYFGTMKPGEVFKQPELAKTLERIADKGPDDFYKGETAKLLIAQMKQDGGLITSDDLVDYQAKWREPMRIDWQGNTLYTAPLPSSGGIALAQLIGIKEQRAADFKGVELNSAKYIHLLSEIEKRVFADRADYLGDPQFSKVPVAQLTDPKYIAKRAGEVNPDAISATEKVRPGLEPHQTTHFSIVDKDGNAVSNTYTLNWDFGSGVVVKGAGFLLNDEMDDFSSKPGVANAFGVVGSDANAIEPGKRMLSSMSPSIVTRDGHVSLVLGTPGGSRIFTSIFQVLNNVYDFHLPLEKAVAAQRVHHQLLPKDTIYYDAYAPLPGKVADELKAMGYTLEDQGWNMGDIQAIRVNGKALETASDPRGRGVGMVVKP
# Sequence (E0D5C2 25-556 partner): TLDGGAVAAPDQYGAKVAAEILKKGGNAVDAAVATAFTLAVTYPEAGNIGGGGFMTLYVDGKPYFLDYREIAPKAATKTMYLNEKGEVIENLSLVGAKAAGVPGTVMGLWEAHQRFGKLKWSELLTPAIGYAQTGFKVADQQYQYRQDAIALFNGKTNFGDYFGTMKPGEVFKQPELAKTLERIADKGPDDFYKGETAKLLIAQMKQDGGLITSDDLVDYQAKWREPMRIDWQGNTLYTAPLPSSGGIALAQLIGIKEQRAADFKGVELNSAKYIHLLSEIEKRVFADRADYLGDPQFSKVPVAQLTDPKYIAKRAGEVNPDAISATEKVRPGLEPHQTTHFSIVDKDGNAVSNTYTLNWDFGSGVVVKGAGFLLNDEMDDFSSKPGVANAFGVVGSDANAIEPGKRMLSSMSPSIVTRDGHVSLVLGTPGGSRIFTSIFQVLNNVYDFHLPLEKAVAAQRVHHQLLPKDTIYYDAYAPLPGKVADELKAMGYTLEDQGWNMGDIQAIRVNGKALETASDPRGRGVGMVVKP
# experimental-protocol: Substrate profile of GL-7-ACA acylase, whole cells of ATCC 33634
# Format: biochemical
# assay-context: whole cells of ATCC 33634, 0.2 g/l substrate, 37° C., 3 hr
# Method: Colonies forming clear zones were cultivated in Nutrient Broth (Difco, Detroit, Mich.) and tested for GL-7-ACA acylase activity as described by Shibuya et al. (Agric. Biol. Chem. 45: 1561-1567, 1981). The whole-cell suspension of ATCC 33634 in 100 mM acetate buffer (pH 5.0) was used as the acylase source. One unit of the acylase activity was defined as the amount of enzyme that liberates 1 μmole of […] per min. Cells of ATCC 33634 were used to convert GL-7-ACA and related compounds (Table 2). […]
Answer in %, number only, no unit symbol.

Q. For the compound shown here, CC1=C(C(=O)O)N2C(=O)[C@@H](NC(=O)CCCC(=O)O)[C@H]2SC1 , give the reported relative activity (percentage relative to the activity for GL7-ACA).
A. 294

Q. For the compound shown here, CC(=O)OCC1=C(C(=O)O)N2C(=O)[C@@H](NC(=O)CCCC(=O)O)[C@H]2SC1 , give the reported relative activity (percentage relative to the activity for GL7-ACA).
A. 100
